Measured values drawn from the supplement of paper PMC10065799 for this set.

Listing of recorded phosphorylation enrichment by entry.
tested on: Fer (mouse); test: phosphorylation enrichment, bacterial display (enrichment ratio); higher = better substrate or ligand; peptides without Tyr show the background;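 further: frequency after pTyr selection over input frequency; kinase dosed for 20-30% of maximal phosphorylation in three min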
Field format: numeric only.

For orientation, consider the following solved cases.
{"macromolecule sequence": "TIQSMYGCDVG [HLA-B_Y123_L119I]", "observed property": "phosphorylation enrichment", "value observed": 0.48}
{"macromolecule sequence": "IDPFTYTPFGS [CYP3A4_Y432_I431T_YF]", "observed property": "phosphorylation enrichment", "value observed": 0.587}
{"macromolecule sequence": "IPGGIYDADLN [CST4_Y35]", "observed property": "phosphorylation enrichment", "value observed": 0.611}

# assay system Fer (mouse): give phosphorylation enrichment of EAGKVYLKAAM [CBFB_Y96_P100A];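 further: frequency after pTyr selection over input frequency; kinase dosed for 20-30% of maximal phosphorylation in three min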
0.568

Enter recorded phosphorylation enrichment with Fer (mouse) for TSFSGYRFHRH [NKAPL_Y94_YF] here.
0.384

Provide Fer (mouse) phosphorylation enrichment reading for GVRFIYTIDGS [DCX_Y105_YF] .
0.669

Recall the reported phosphorylation enrichment of DTERIYDDDFF [UBA1_Y560] on Fer (mouse) and write it down.
0.995

Find the measured phosphorylation enrichment of CNPLRYPVLMS [OR2T1_Y182] with Fer (mouse) as test system.
0.453

Please tell me the measured phosphorylation enrichment for RIAFQYGVTDL [MYBPC3_Y340] ; system: Fer (mouse).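 Further: 11-residue human phosphosite peptides and single-mutation variants displayed on the E. coli surface, counted by deep sequencing, each peptide's frequency after selection divided by its frequency in the unselected input library.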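 Further: frequency after pTyr selection over input frequency; kinase dosed for 20-30% of maximal phosphorylation in three min.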
0.558

Answer briefly: phosphorylation enrichment recorded on Fer (mouse) for GTSLIYWTLFT [G6PC3_Y214]
1.68

Supply phosphorylation enrichment measured with Fer (mouse) for RLSVDYSKKSK [TUBA3E_Y161] .
0.35

Supply phosphorylation enrichment measured with Fer (mouse) for LPKDLYLISQM [LARP4_Y141_S137P] .
0.646

Supply phosphorylation enrichment measured with Fer (mouse) for QRIHNYFEHRF [HCN4_Y554_D553N_YF] .
0.343

Write down measured phosphorylation enrichment (Fer (mouse)) for this sequence. EQSNPYMVLDI [ROCK2_Y1197]
3.79

State phosphorylation enrichment (Fer (mouse)) of FSLIHYAGIVD [MYH7_Y582] .
0.387

Please look at QEKKGYFEDRR [GLUL_Y336] and tell me its recorded phosphorylation enrichment on Fer (mouse).
0.821
